FYI, the data here is from patent US20160114035A1.

target: DRB1*1302; experiment: binding to purified HLA
Label key: Yes means IC50 under 1000 nM; No means IC50 of 1000 nM or more.

# Binder, Assigned category
rows = [
    ("AAAFFVAANTLHAAA [F4.N9.H12]", "Yes"),
    ("AAAFFVAANTLKADA [F4.N9.D14]", "Yes"),
    ("AAAYFVAAWTLHAAA [Y4.H12]", "No"),
    ("AAAYFVAANTLHAAA [Y4.N9.H12]", "Yes"),
    ("AAAWFVAANTLHAAA [W4.N9.H12]", "Yes"),
    ("AAAYFVAAFTLHAAA [Y4.F9.H12]", "No"),
    ("AAAKFVAAWTLKAAA [SEQ ID NO: 4]", "Yes"),
    ("AAAHFVAAWTLHAAA [H4.H12]", "No"),
]
